test: Metabolic stability in human liver S9 fraction assessed as parent compound remaining at 100 uM preincubated for 5 mins followed by glutathione addition measured after 2 hrs by LC-MS/MS analysis; assay type: ADME, subcellular; conditions: read-out: Stability
parameter: remaining at 2 h, 100 µM (%)
Response body: numeric value in %, unit text excluded.

Here's what some known entries look like.
> print(dat)
                              record.smiles                 parameter  unit.of.measurement  value.reported
1  CN[C@@H]1[C@H](O)[C@H](NC)[C@H]2O[C@]3(O)[C@H](O[C@@H]2[C@H]1O)O[C@H](C)C[C@H]3NC(=O)Cc1cc(Cl)ccn1  remaining at 2 h, 100 µM                    %            98.7
2  CN[C@@H]1[C@H](O)[C@H](NC)[C@H]2O[C@]3(O)[C@H](O[C@@H]2[C@H]1O)O[C@H](C)C[C@H]3NC(=O)Cc1ccc(O)cn1  remaining at 2 h, 100 µM                    %            99.9
3  CN[C@@H]1[C@H](O)[C@H](NC)[C@H]2O[C@]3(O)[C@H](O[C@@H]2[C@H]1O)O[C@H](C)C[C@H]3NC(=O)Cc1cc(Cl)c(F)cn1  remaining at 2 h, 100 µM                    %            98.6
4  CN[C@@H]1[C@H](O)[C@H](NC)[C@H]2O[C@]3(O)[C@H](O[C@@H]2[C@H]1O)O[C@H](C)C[C@H]3NC(=O)Cc1ccc(Cl)cn1  remaining at 2 h, 100 µM                    %            99.9

Consider the record given below.
**Query** Which measured remaining at 2 h, 100 µM value corresponds to `CN[C@@H]1[C@H](O)[C@H](NC)[C@H]2O[C@]3(O)[C@H](O[C@@H]2[C@H]1O)O[C@H](C)C[C@H]3NC(=O)Cc1cc(Cl)c(OC)cn1` ?
**Result** 98.8

###

We begin with a simple list: items and their reported half-life at 100 µM.
assay: Half life in rat liver S9 fraction at 100 uM preincubated for 5 mins followed by glutathione addition measured after 2 hrs by LC-MS/MS analysis; type: ADME, subcellular
Hi! Could you send only the number? It should be in h, unit omitted.

Below are worked cases with known answers.
> print(dat)
                              record.smiles  unit.of.measurement  value.reported
1  CN[C@@H]1[C@H](O)[C@H](NC)[C@H]2O[C@]3(O)[C@H](O[C@@H]2[C@H]1O)O[C@H](C)C[C@H]3NC(=O)Cc1cc(Cl)ccn1                    h            3.35
2  CN[C@@H]1[C@H](O)[C@H](NC)[C@H]2O[C@]3(O)[C@H](O[C@@H]2[C@H]1O)O[C@H](C)C[C@H]3NC(=O)Cc1ccc(F)cn1                    h            32.6

Let us move to another entry and its half-life at 100 µM.
**Query** Which half-life at 100 µM is listed for `CN[C@@H]1[C@H](O)[C@H](NC)[C@H]2O[C@]3(O)[C@H](O[C@@H]2[C@H]1O)O[C@H](C)C[C@H]3NC(=O)Cc1cc(Cl)c(OC)cn1` ?
**Result** 6.7

###

Property: half-life at 100 µM; scope: individual molecules
assay: Half life in human liver S9 fraction at 100 uM preincubated for 5 mins followed by glutathione addition measured after 2 hrs by LC-MS/MS analysis; type: ADME, subcellular

> print(dat)
                              record.smiles  value.reported
1  CN[C@@H]1[C@H](O)[C@H](NC)[C@H]2O[C@]3(O)[C@H](O[C@@H]2[C@H]1O)O[C@H](C)C[C@H]3NC(=O)Cc1ccc(O)cn1          > 50 h
2  CN[C@@H]1[C@H](O)[C@H](NC)[C@H]2O[C@]3(O)[C@H](O[C@@H]2[C@H]1O)O[C@H](C)C[C@H]3NC(=O)Cc1ccc(Cl)cn1          > 50 h

**Query** Could you tell me which half-life at 100 µM is on file for `CN[C@@H]1[C@H](O)[C@H](NC)[C@H]2O[C@]3(O)[C@H](O[C@@H]2[C@H]1O)O[C@H](C)C[C@H]3NC(=O)Cc1cc(Cl)c(F)cn1` ?
**Result** > 50 h
